Tested on: HCT-15 colon
Experiment: NCI-60 one-dose screen, 48 h (100 = growth as untreated, 0 = no growth, -100 = all killed)
Conditions: 10 µM
This is part of a sample that, as a whole, favours compounds with a hit. Of some 83,000 tested, about 20% had one in any assay. Calls of active or inactive are those of the source. Rule for the calls: active = growth percent below 10; inactive = the rest.
Reported growth values for a set of compounds

* COc1ccc(/C=N/N=C(\C)c2ccc3c(c2)Nc2ccccc2S3)cc1O | 29.8% (inactive)
* COc1cc(/C=C/C(=O)c2ccc(NC(=O)CSc3nnc(-c4c[nH]c5ccccc45)n3-c3ccccc3)cc2)cc(OC)c1OC | 23.5% (inactive)
* CCOc1ccc(/C=N/NC(=O)Cn2nc(Cc3ccc([N+](=O)[O-])cc3)c3onc(C)c3c2=O)cc1 | 33.7% (inactive)

Documented growth of Cn1c(O)c(N=Nc2nc(-c3cc4ccccc4oc3=O)cs2)c2cc(Br)ccc21 : 88.5% (inactive)

Documented growth of CN(CCF)c1ccc(/C=C/C(=O)c2ccc(N)cc2O)cc1 : 49.8% (inactive)

###

Test system: SN12C renal
Test: NCI-60 one-dose screen, 48 h
Details: 10 µM
This is part of a sample that, as a whole, favours compounds with a hit. Of some 83,000 tested, about 20% had one in any assay. The source made the active and inactive calls. The calls were made as follows: active = growth percent below 10; inactive = the rest.
Outcome (select one): label 1 = active, label 0 = inactive

IN: Answer briefly: the call reported for O=C(Cn1cc(CSc2nnc3oc4ccccc4n23)nn1)Nc1cccc(Cl)c1 in this assay.
OUT: label 0

###

Test system: MCF7 breast
Assay: NCI-60 one-dose screen, 48 h (100 = growth as untreated, 0 = no growth, -100 = all killed)
Settings: 10 µM
This is part of a sample that, as a whole, favours compounds with a hit. Of some 83,000 tested, about 20% had one in any assay.
value_kind: growth (%)
Write the number in % without appending the unit.

Some entries whose results are on file:
* CC1=C2C(=C[C@@](C)(COCOCCCl)[C@@H]2O)C(=O)[C@](C)(O)C12CC2 | -46.2
* C=C(C)[C@@H]1CC[C@]2(C(=O)OC)CC[C@]3(C)[C@H](CC[C@@H]4[C@@]5(C)CC[C@H](N)C(C)(C)[C@@H]5CC[C@]43C)[C@@H]12 | -85.4

Simply: Clc1ccc(/C=N/Nc2ncnc3sc4c(c23)CCN(Cc2ccccc2)C4)cc1 , MCF7 breast, growth = -47.5

Simply: COc1ccccc1[C@H]1C(C(=O)c2ccc(Cl)cc2)C2(N[C@@H]1c1ccccc1)C(=O)Nc1ccc(Cl)cc12 (stereo partly drawn) , MCF7 breast, growth = -4.87

Simply: Cc1noc2c(Cc3ccc([N+](=O)[O-])cc3)nn(CC(=O)N/N=C/c3ccc(Cl)cc3)c(=O)c12 , MCF7 breast, growth = 52.5

Simply: COc1ccc(NC(=O)CSc2nnc(-c3ccc4nc(-c5ccc(Cl)cc5)[nH]c4c3)o2)cc1 , MCF7 breast, growth = 17.1

Simply: CO[C@@H]1CSS[C@H]1Cn1nc(-c2ccc(Oc3ccccc3)cc2)c2c(N)ncnc21 , MCF7 breast, growth = 30.7

Simply: O=C(NO)c1ccc(Cn2ccc3c(Nc4ccccc4)ncnc32)cc1 , MCF7 breast, growth = 14

###

Tested on: HS 578T breast
Experiment: NCI-60 one-dose screen, 48 h (100 = growth as untreated, 0 = no growth, -100 = all killed)
Conditions: 10 µM
Procedure: Growth inhibition of the HS 578T human tumor cell line is measured as a screen for anti-cancer activity. Cells are grown in 96 well plates and exposed to the test compound for 48 hours. Compounds are tested at a single concentration, which is 10^-5 M for most compounds. The reported endpoint is percent growth (GI% or GIPRCNT), where numbers from 0 - 100% represent growth inhibition, and numbers from -100% - 0 represent cell death. For example, a value of 40 represents 60% growth inhibition. […]
Compounds without any hit were thinned out: in the full panel of roughly 83,000, 20% have a hit.
Reported growth values for a set of compounds
Write the number in % without appending the unit.

- O=C(CNc1nc(-c2ccccc2)cs1)Nc1cccc(Cl)c1: 32.4
- O=c1cc(-c2ccccc2)oc2cc(OCCCCNCc3ccccc3)cc(O)c12: 39.6
- COc1ccc(OC)c(/C=N/NC(=O)c2ccc3nc(-c4ccc(Cl)cc4)[nH]c3c2)c1: 51.2
- COc1ccc2cc([C@H](C)C(=O)NCc3ccccc3)ccc2c1: 16.8
- O=C(Nc1ccc(I)cc1F)c1cc(-c2ccc(F)cc2F)ccc1O: 2.66

Documented growth of Clc1ccc2c(N/N=C/c3c[nH]c4ccc(Br)cc34)ccnc2c1 : -58.5

Documented growth of CCCn1c(O)c(N=Nc2nc(-c3cc4ccccc4oc3=O)cs2)c2cc(Br)ccc21 : 83.4

Documented growth of COc1ccc(C(=O)/C=C/c2cc(C(F)(F)F)cc(C(F)(F)F)c2)cc1S(N)(=O)=O : -12.8

Documented growth of CN(C)c1ccc(/C=C/c2nc3ccccc3c(=O)n2CC(=O)Nc2ccccc2)cc1 : 44.7

Documented growth of OCCNc1oc(-c2ccccc2)nc1[P+](c1ccccc1)(c1ccccc1)c1ccccc1 : -3.9

###

Test system: HT29 colon
Experiment: NCI-60 one-dose screen, 48 h
Details: 10 µM
About 83,000 compounds went through this panel and 20% of them were active in at least one assay; those are over-represented in the sample as a whole. The source made the active and inactive calls. Rule for the calls: active = growth percent below 10; inactive = the rest.
Outcome (select one): T for active, F for inactive

- CN1CCN(c2ccc(C(=O)/C=C/c3cc(C(F)(F)F)ccc3Cl)cc2)CC1: T
- O=c1[nH]c2ccccc2cc1CSc1ccc(Nc2nccc(-c3ccc(Cl)cc3)n2)cc1: T

IN: Answer briefly: the call reported for COC(=O)c1c(C(=O)OC)c2n(c1C)[C@@H]([C@@H](C)[C@H]1CC[C@H]3[C@@H]4CCC5=CC(=O)CC[C@]5(C)[C@H]4CC[C@]13C)SC2 in this assay.
OUT: F

IN: Answer briefly: the call reported for O=C1c2ccccc2C(=O)c2c1c(C(=O)c1ccc(Cl)cc1)n1c2ccc2c3ccccc3ccc21 in this assay.
OUT: F

###

Tested on: K-562 leukemia
Experiment: NCI-60 one-dose screen, 48 h (100 = growth as untreated, 0 = no growth, -100 = all killed)
Details: 10 µM
Experimental: Cells are grown in 96 well plates and exposed to the test compound for 48 hours. Compounds are tested at a single concentration, which is 10^-5 M for most compounds. The reported endpoint is percent growth (GI% or GIPRCNT), where numbers from 0 - 100% represent growth inhibition, and numbers from -100% - 0 represent cell death. For example, a value of 40 represents 60% growth inhibition. A value of 0 means no net growth occurred over the course of the experiment. […]
About 83,000 compounds went through this panel and 20% of them were active in at least one assay; those are over-represented in the sample as a whole.
Reported growth values for a set of molecules
Write the number in % without appending the unit.

- COc1ccc2nc(Cl)c(-c3cc(-c4ccccc4)nc(=O)[nH]3)cc2c1: 4.96
- NC1=NC(c2ccccc2Cl)N=C(Nc2nn[nH]n2)N1 (stereo not given): 100
- Nc1nc(Nc2ccccc2)nn1Cc1c(Cl)cccc1Cl: 12.8

Documented growth of O=C1Nc2cc(Cl)ccc2/C1=C/c1cccc(OCc2ccc(Br)cc2F)c1 : 1.92

Documented growth of Cc1ccc(CSc2nc(-c3ccc(F)cc3)c(C#N)c(=O)[nH]2)cc1 : 91.1

Documented growth of CC(=O)Nc1ccc(-n2cnc3cc(-c4ccc(O)cc4)ccc32)cc1C : 41.2

Documented growth of N#C/C(=C\c1ccc(N(c2ccccc2)c2ccccc2)cc1)C(N)=O : 35.4

###

Tested on: RPMI-8226 leukemia
Test: NCI-60 one-dose screen, 48 h (100 = growth as untreated, 0 = no growth, -100 = all killed)
Details: 10 µM
Method: Growth inhibition of the RPMI-8226 human tumor cell line is measured as a screen for anti-cancer activity. Cells are grown in 96 well plates and exposed to the test compound for 48 hours. Compounds are tested at a single concentration, which is 10^-5 M for most compounds. The reported endpoint is percent growth (GI% or GIPRCNT), where numbers from 0 - 100% represent growth inhibition, and numbers from -100% - 0 represent cell death. For example, a value of 40 represents 60% growth inhibition. […]
About 83,000 compounds went through this panel and 20% of them were active in at least one assay; those are over-represented in the sample as a whole.
Label rule, in plain words: growth of 30% and up is condition met, under 30% is condition not met.

Completed entries (count: 5):
- CC1(C)[C@@H](NCO)CC[C@]2(C)[C@H]3C(=O)C=C4[C@@H]5C[C@](C)(CO)CC[C@]5(C)CC[C@@]4(C)[C@]3(C)CC[C@@H]12: condition not met
- COc1ccc2[nH]c(O)c(N=NC(=O)COc3ccc(NC(=O)Nc4ccc(Cl)cc4)cc3)c2c1: condition met
- O=S(=O)(Nc1ncccn1)c1ccc(-n2c(-c3ccc(Br)cc3)nc(-c3ccccc3)c2-c2ccccc2)cc1: condition met
- O=C(CSc1nnc(-c2c[nH]c3ccccc23)n1-c1ccccc1)Nc1ccc(C(=O)/C=C/c2ccc(Cl)cc2)cc1: condition not met
- Cc1ccc([N+](=O)[O-])c(C(=O)Nc2ccc(-c3ccc4c(c3)NC(=O)/C4=C\c3ccc[nH]3)cc2)c1: condition met

IN: Record C#Cc1ccc(S(=O)(=O)Nc2cccc(-c3csc(NC(C)=O)n3)c2)cc1 ; criterion: growth no lower than 30%. Met?
OUT: condition met

IN: Record CC(=O)NCC1=C(C)C=C2C(=O)[C@](C)(O)C3(CC3)C(C)=C21 ; criterion: growth no lower than 30%. Met?
OUT: condition met

IN: Record COC[C@@H](CC(C)C)N=C1N/C(=C\c2ccc3ncsc3c2)C(=O)N1C ; criterion: growth no lower than 30%. Met?
OUT: condition not met

IN: Record O=c1oc2ccc(-c3ccc(F)cc3F)cc2c(=O)n1-c1ccc(F)cc1 ; criterion: growth no lower than 30%. Met?
OUT: condition not met
